- systemTested: T1, RsAgo R481A/T484A (Rhodobacter sphaeroides (ATCC 17025D-5), UniProt A4WYU7 1-777, R481A;T484A)
- T1 sequence: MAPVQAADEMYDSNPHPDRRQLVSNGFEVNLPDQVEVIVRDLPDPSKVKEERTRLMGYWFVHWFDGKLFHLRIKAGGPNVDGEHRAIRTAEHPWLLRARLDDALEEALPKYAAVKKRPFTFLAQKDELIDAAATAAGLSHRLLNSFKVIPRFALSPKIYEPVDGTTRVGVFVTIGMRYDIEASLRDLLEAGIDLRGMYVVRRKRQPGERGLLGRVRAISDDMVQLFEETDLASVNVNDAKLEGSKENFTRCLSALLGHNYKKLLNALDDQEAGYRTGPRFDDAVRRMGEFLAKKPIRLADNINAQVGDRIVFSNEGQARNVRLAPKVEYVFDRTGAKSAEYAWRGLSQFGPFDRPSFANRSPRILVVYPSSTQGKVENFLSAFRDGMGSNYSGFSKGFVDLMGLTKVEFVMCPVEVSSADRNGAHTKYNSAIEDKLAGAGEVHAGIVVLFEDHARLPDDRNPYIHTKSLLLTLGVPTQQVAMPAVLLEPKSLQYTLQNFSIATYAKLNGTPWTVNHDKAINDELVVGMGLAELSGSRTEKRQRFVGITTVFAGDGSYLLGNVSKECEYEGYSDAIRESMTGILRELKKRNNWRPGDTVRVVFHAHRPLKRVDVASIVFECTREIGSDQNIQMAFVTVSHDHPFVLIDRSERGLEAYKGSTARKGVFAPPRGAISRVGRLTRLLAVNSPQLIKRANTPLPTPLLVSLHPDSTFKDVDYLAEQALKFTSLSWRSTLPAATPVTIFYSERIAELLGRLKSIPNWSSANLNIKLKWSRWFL
- testDescription: fluorescence polarization; 5 mM Mg2+; FP: 20 mM HEPES-KOH pH 7.5, 200 mM NaCl, 5 mM MgCl2, 0.01 mg/ml E. coli total tRNA, 0.01% NP-40, 10 pM probe, 25 C; EMSA: 20 mM HEPES-KOH pH 7.5, 200 mM NaCl, 5
attributeMeasured: Kd (nM)
Give bare numbers, in nM.

Recorded Kd for UUACAACCUACUACCUCG (ssRNA, 5'-phosphate) [5'P-RNA (5'U-RNA), FAM] , please?
718
